B1: APBB1IP (parent)
chain: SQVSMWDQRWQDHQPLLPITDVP

Variants of: B1
measurement_protocol: protein stability index of a GFP-peptide fusion (GPS, HEK-293T) (PSI 1-6); higher = more stable;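 note: lentivirally expressed fusions sorted by FACS into six bins by GFP to DsRed ratio, PSI derived from sequencing read proportions per bin multiplied by bin number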
experimental_conditions: c terminus: native
readout_label: protein stability index

Field: example entries. Status: answers known.
change: Q11A
readout_label: protein stability index
reported_result: 1.84
--
change: S1Q
readout_label: protein stability index
reported_result: 2.36

[Q] Consider the variant D12Q . State its measured protein stability index.
[A] 2.06

[Q] Consider the variant D7N . State its measured protein stability index.
[A] 2.44

[Q] Consider the variant D21H . State its measured protein stability index.
[A] 1.75

[Q] Consider the variant L17H . State its measured protein stability index.
[A] 3.2

[Q] Consider the variant D12L . State its measured protein stability index.
[A] 2.44

[Q] Consider the variant V22K . State its measured protein stability index.
[A] 3.37

[Q] Consider the variant S4Y . State its measured protein stability index.
[A] 2.42

[Q] Consider the variant S1R . State its measured protein stability index.
[A] 2.23

[Q] Consider the variant P15C . State its measured protein stability index.
[A] 2.18

Source listed as the supplement of paper PMC10567573.
